Hello, the source for this data is PubChem BioAssay, in case you need it.

Each entry below carries its recorded composite z-score.
tested_system: Albumin (Bos taurus)
protocol_text: bovine serum albumin binders on microarray, profiling panel, artefact control for SMM control protein annotation, biochemical, small-molecule microarray, Alexa647 label, 635/667 nm fluorescence (AID 1118);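 further: score merges 667 nm emission intensity and signal-to-noise per printed compound spot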
protocol_conditions: BSA-A647 binding, fluorescence 635 nm, higher = more signal
Answer field: number only, no words.

[
  {
    "compound": "COC(=O)CC=C[C@@H](C)[C@H](OC)c1ccccc1Br",
    "measurement_name": "composite z-score",
    "measured_result": -0.335
  },
  {
    "compound": "CC(C)c1ccc(NN2C(C(O)c3ccc4c(c3)OCO4)C=CC3C(=O)N(c4ccccc4)C(=O)C32)cc1 (centres undefined)",
    "measurement_name": "composite z-score",
    "measured_result": 1
  },
  {
    "compound": "C#CCCCON=C1C[C@@H](O)[C@@H](O)[C@@H]2[C@@H]3C(=O)N(Cc4ccccc4)C(=O)[C@@H]3CC[C@H]12",
    "measurement_name": "composite z-score",
    "measured_result": 0.344
  }
]

# input for lookup
q: Name the recorded composite z-score for `C[N+](C)(C)CCCCCCNC(=O)[C@@H]1C[C@@H]2C(=O)N3CCC[C@H]3C(=O)N2[C@@H]1c1cccc(OCCO)c1` .
a: -0.45

====

Each entry below carries its recorded z-score.
protocol_text: FRG1 promoter luciferase signal modulators, primary screen, FRG1 inhibition for FSHD, cell-based, C2C12 myotubes, firefly/Renilla luciferase, luminescence (AID 1084)
protocol_conditions: higher = more signal, called active from +8 up or from −8 down
Answer field: number only, no words.

[
  {
    "molecule": "COc1ccc(O[C@H]2C=C[C@@H](c3ccccc3)O[C@@H]2COC(=O)CCC(C)=NO[C@H](C)c2cn([C@@H]3COC[C@H]3O)nn2)cc1",
    "z-score": 1.39
  }
]

q: Name the recorded z-score for O=C1NC(=O)C2C1C=CC(C(O)Cc1ccccc1)N2Nc1ccccn1 (centres undefined) .
a: -0.518

q: Name the recorded z-score for CCCCCN1CC=CC23O[C@@H]4C=CCOC(=O)[C@@H]4[C@H]2C(=O)N(C(CO)C(C)C)[C@@H]3C1=O (some centres undefined) .
a: -0.0073

q: Name the recorded z-score for `CC(=O)OC[C@H]1O[C@@H](ON=C(C)CCN2CCc3nc(-c4ccccc4)c(-c4ccccc4)cc3C2)[C@H](OC(C)=O)[C@@H](OC(C)=O)[C@@H]1OC(C)=O` .
a: 0.66

====

protocol_text: compound binding in COS7 lysate, probe aLAP1, primary screen, cell lysate, small-molecule microarray (AID 1124);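 further: lysate comes from COS7 cells expressing LAP1 and is applied at 0.3 µg/mL; score merges spot fluorescence near 667 nm with signal-to-noise over triplicate slides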
protocol_conditions: probe aLAP1, fluorescence, higher = more signal
measurement_name: composite z-score
Answer field: number only, no words.

[
  {
    "smiles_entry": "O=C1[C@H]2[C@H]3[C@H](O)[C@H](O)CC(=NO[C@@H]4O[C@H](CO)[C@@H](O)[C@H](O)[C@H]4O)[C@H]3CC[C@H]2C(=O)N1Cc1ccccc1",
    "composite z-score": 0.0052
  }
]

q: Name the recorded composite z-score for `CCc1cc2c(nc1CC)CCN(CCC(C)=NOC[C@@H](O)[C@H]1O[C@@H]3OC(C)(C)O[C@@H]3[C@H]1O)C2` .
a: -0.0959

q: Name the recorded composite z-score for `CC(C)CON=C1[C@H]2CCn3c(=O)n(-c4ccccc4)c(=O)n3[C@H]2[C@H](O)[C@@H]2O[C@H]12` .
a: -0.544

q: Name the recorded composite z-score for `COCCOC(=O)N1C(=O)[C@@]2(c3cc(C#CC4(O)CCCCCC4)ccc31)[C@H](C(=O)N1CCN(c3ncccn3)CC1)[C@H]1C(=O)O[C@H](c3ccccc3)[C@H](c3ccccc3)N1[C@@H]2c1ccc(OCCO)cc1` .
a: 0.857
